- Test system: patient_146514
- assayMethodText: microbe, parasite or virus in culture
- Type: cell-based, HIV
- conditionContext: Human immunodeficiency virus 1, AVE 2, patient_146514, primer set 3
pEC50: −log10 of the molar value.
reportedEndpoint: pEC50

>>> numericreadout("O=c1[nH]cnc2c1ncn2[C@H]1CC[C@@H](CO)O1")
4.98
>>> numericreadout("CC(C)c1nc(CN(C)C(=O)N[C@H](C(=O)N[C@@H](Cc2ccccc2)C[C@H](O)[C@H](Cc2ccccc2)NC(=O)OCc2cncs2)C(C)C)cs1")
6.72
>>> numericreadout("c1cc(CN2CCCNCCNCCCNCC2)ccc1CN1CCCNCCNCCCNCC1")
7.26
>>> numericreadout("Nc1ccn([C@@H]2CS[C@H](CO)O2)c(=O)n1")
5.46
>>> numericreadout("CC(C)(C)NC(=O)[C@@H]1CN(Cc2cccnc2)CCN1C[C@@H](O)C[C@@H](Cc1ccccc1)C(=O)N[C@H]1c2ccccc2C[C@H]1O")
7.25
>>> numericreadout("CC(C)CN(C[C@@H](O)[C@H](Cc1ccccc1)NC(=O)O[C@H]1CCOC1)S(=O)(=O)c1ccc(N)cc1")
6.93
>>> numericreadout("CC(C)Oc1ccc(Cc2ccccc2)cc1C(=O)CC(=O)C(=O)O")
6.55
>>> numericreadout("Cc1ccnc2c1NC(=O)c1cccnc1N2C1CC1")
6.82
>>> numericreadout("Cc1cn([C@H]2C[C@H](N=[N+]=[N-])[C@@H](CO)O2)c(=O)[nH]c1=O")
6.82
>>> numericreadout("CC(C)(C)NC(=O)[C@@H]1C[C@@H]2CCCC[C@@H]2CN1C[C@@H](O)[C@H](Cc1ccccc1)NC(=O)[C@H](CC(N)=O)NC(=O)c1ccc2ccccc2n1")
7.46

---

EC50 listing for selected molecules.
- System: pHXB2D control
- assayMethodText: Antiviral experiment with control clone, transfected directly without recombination
- Type: cell-based, HIV
- conditionContext: Human immunodeficiency virus 1, AVE 6, pHXB2D control, no recombination
reportedEndpoint: EC50 (nM)

>>> numericreadout("CC(C)c1nc(CN(C)C(=O)N[C@H](C(=O)N[C@@H](Cc2ccccc2)C[C@H](O)[C@H](Cc2ccccc2)NC(=O)OCc2cncs2)C(C)C)cs1")
148
>>> numericreadout("Cc1ccnc2c1NC(=O)c1cccnc1N2C1CC1")
86.3
>>> numericreadout("Cc1cn([C@H]2C[C@H](N=[N+]=[N-])[C@@H](CO)O2)c(=O)[nH]c1=O")
168
>>> numericreadout("CC(C)(C)NC(=O)[C@@H]1CN(Cc2cccnc2)CCN1C[C@@H](O)C[C@@H](Cc1ccccc1)C(=O)N[C@H]1c2ccccc2C[C@H]1O")
43.9
>>> numericreadout("c1cc(CN2CCCNCCNCCCNCC2)ccc1CN1CCCNCCNCCCNCC1")
55.6
>>> numericreadout("O=c1[nH]cnc2c1ncn2[C@H]1CC[C@@H](CO)O1")
4820
>>> numericreadout("Nc1ccn([C@@H]2CS[C@H](CO)O2)c(=O)n1")
1380
>>> numericreadout("CC(C)CN(C[C@@H](O)[C@H](Cc1ccccc1)NC(=O)O[C@H]1CCOC1)S(=O)(=O)c1ccc(N)cc1")
83.8
>>> numericreadout("CC(C)Oc1ccc(Cc2ccccc2)cc1C(=O)CC(=O)C(=O)O")
276
>>> numericreadout("CC(C)(C)NC(=O)[C@@H]1C[C@@H]2CCCC[C@@H]2CN1C[C@@H](O)[C@H](Cc1ccccc1)NC(=O)[C@H](CC(N)=O)NC(=O)c1ccc2ccccc2n1")
19.8

---

- Tested on: patient_146514
- assayMethodText: microbe, parasite or virus in culture
- Type: cell-based, HIV
- conditionContext: AVE 2, patient_146514, primer set 3; fold change in EC50
- Source text: The integrase encoding sequence was amplified from either wildtype HIV-1 (IIIB) or NL4.3 virus, or HXB2D site-directed mutant viruses containing mutations in integrase (such as T66I, S153Y, M154I, or combinations thereof) (Hazuda et al., Science 2000, 287, 646-650), or patient samples. […]
reportedEndpoint: fold change

>>> result("Cc1cc(C#N)cc(C)c1Oc1nc(Nc2ccc(C#N)cc2)nc(N)c1Br [Compound 1]")
"1,7"
>>> result("Cc1cn([C@H]2C[C@H](N=[N+]=[N-])[C@@H](CO)O2)c(=O)[nH]c1=O [AZT, Zidovudine]")
"0,9"
>>> result("CC(C)Oc1ccc(Cc2ccccc2)cc1C(=O)CC(=O)C(=O)O [Compound 4]")
"1,0"
>>> result("Cc1ccnc2c1NC(=O)c1cccnc1N2C1CC1 [NVP, Nevirapine]")
"1,7"
>>> result("CC(C)CN(C[C@@H](O)[C@H](Cc1ccccc1)NC(=O)O[C@H]1CCOC1)S(=O)(=O)c1ccc(N)cc1 [APV, Amprenavir]")
"1,4"
>>> result("CC(C)c1nc(CN(C)C(=O)N[C@H](C(=O)N[C@@H](Cc2ccccc2)C[C@H](O)[C@H](Cc2ccccc2)NC(=O)OCc2cncs2)C(C)C)cs1 [RTV, ritonavir]")
"1,3"
>>> result("O=C(O)C1=CC(=C(c2ccc(O)c(C(=O)O)c2)c2ccc(O)c(C(=O)O)c2)C=CC1=O [ATA]")
"1,0"
>>> result("O=c1[nH]cnc2c1ncn2[C@H]1CC[C@@H](CO)O1 [DDI, Didanosine]")
"2,2"

---

- System: NL 4-3
- assayMethodText: microbe, parasite or virus in culture
- Assay type: cell-based, HIV-1
- conditionContext: Human immunodeficiency virus 1, NL43, AVE 4, NL4-3, primer set 4
pEC50: −log10 of the molar value.
In this section, each of the compounds is paired with its reported pEC50.
reportedEndpoint: pEC50

>>> numericreadout("Cc1ccnc2c1NC(=O)c1cccnc1N2C1CC1")
6.82
>>> numericreadout("O=c1[nH]cnc2c1ncn2[C@H]1CC[C@@H](CO)O1")
5.10
>>> numericreadout("CC(C)c1nc(CN(C)C(=O)N[C@H](C(=O)N[C@@H](Cc2ccccc2)C[C@H](O)[C@H](Cc2ccccc2)NC(=O)OCc2cncs2)C(C)C)cs1")
6.77
>>> numericreadout("CC(C)Oc1ccc(Cc2ccccc2)cc1C(=O)CC(=O)C(=O)O")
6.62
>>> numericreadout("Cc1cc(C#N)cc(C)c1Oc1nc(Nc2ccc(C#N)cc2)nc(N)c1Br")
8.64

---

# key: entry, value: fold change
- Tested on: NL 4-3
- assayMethodText: microbe, parasite or virus in culture
- Type: cell-based, HIV-1
- conditionContext: AVE 1, NL 4-3, primer set 3; fold change in EC50
reportedEndpoint: fold change

>>> result("Cc1cn([C@H]2C[C@H](N=[N+]=[N-])[C@@H](CO)O2)c(=O)[nH]c1=O")
"0,9"
>>> result("Cc1cc(C#N)cc(C)c1Oc1nc(Nc2ccc(C#N)cc2)nc(N)c1Br [Compound 2]")
"0,8"
>>> result("CC(C)CN(C[C@@H](O)[C@H](Cc1ccccc1)NC(=O)O[C@H]1CCOC1)S(=O)(=O)c1ccc(N)cc1")
"0,6"
>>> result("CC(C)(C)NC(=O)[C@@H]1C[C@@H]2CCCC[C@@H]2CN1C[C@@H](O)[C@H](Cc1ccccc1)NC(=O)[C@H](CC(N)=O)NC(=O)c1ccc2ccccc2n1")
"1,2"
>>> result("CC(C)(C)NC(=O)[C@@H]1CN(Cc2cccnc2)CCN1C[C@@H](O)C[C@@H](Cc1ccccc1)C(=O)N[C@H]1c2ccccc2C[C@H]1O")
"0,7"
>>> result("CC(C)Oc1ccc(Cc2ccccc2)cc1C(=O)CC(=O)C(=O)O")
"0,6"
>>> result("CC(C)c1nc(CN(C)C(=O)N[C@H](C(=O)N[C@@H](Cc2ccccc2)C[C@H](O)[C@H](Cc2ccccc2)NC(=O)OCc2cncs2)C(C)C)cs1")
"0,6"
>>> result("O=C(O)C1=CC(=C(c2ccc(O)c(C(=O)O)c2)c2ccc(O)c(C(=O)O)c2)C=CC1=O")
"0,9"
>>> result("Cc1cc(C#N)cc(C)c1Oc1nc(Nc2ccc(C#N)cc2)nc(N)c1Br [Compound 1]")
"1,0"
>>> result("Cc1ccnc2c1NC(=O)c1cccnc1N2C1CC1")
"1,1"
>>> result("Nc1ccn([C@@H]2CS[C@H](CO)O2)c(=O)n1")
"0,6"
>>> result("CC(C)CN(C[C@@H](O)[C@H](Cc1ccccc1)NC(=O)O[C@H]1CO[C@H]2OCC[C@H]21)S(=O)(=O)c1ccc(N)cc1")
"0,5"
>>> result("c1cc(CN2CCCNCCNCCCNCC2)ccc1CN1CCCNCCNCCCNCC1")
"0,9"
>>> result("O=c1[nH]cnc2c1ncn2[C@H]1CC[C@@H](CO)O1")
"0,7"

---

- Test system: WT III B
- assayMethodText: microbe, parasite or virus in culture
- Assay type: cell-based, HIV-1
- conditionContext: AVE 5, WT III B, primer set 4; fold change in EC50
reportedEndpoint: fold change

>>> result("Cc1cc(C#N)cc(C)c1Oc1nc(Nc2ccc(C#N)cc2)nc(N)c1Br [Compound 2]")
"0,9"
>>> result("CC(C)(C)NC(=O)[C@@H]1CN(Cc2cccnc2)CCN1C[C@@H](O)C[C@@H](Cc1ccccc1)C(=O)N[C@H]1c2ccccc2C[C@H]1O")
"0,9"
>>> result("O=C(O)C1=CC(=C(c2ccc(O)c(C(=O)O)c2)c2ccc(O)c(C(=O)O)c2)C=CC1=O")
"0,4"
>>> result("Cc1ccnc2c1NC(=O)c1cccnc1N2C1CC1")
"1,6"
>>> result("CC(C)Oc1ccc(Cc2ccccc2)cc1C(=O)CC(=O)C(=O)O")
"0,7"

Provenance of the data: patent EP1285971B1
